# Test system: MDA-N
# Assay Protocol: NCI tumour cell line growth inhibition, 48 h
Active and inactive are the calls of the source. Rule as the data show it: active = GI50 up to about 1.1 µM and inactive = higher.
Exercise: state measured GI50 for each of the compounds provided.

Incoming: Find the recorded GI50 belonging to CN(C)c1ccc(/C=C(\NC(=O)c2ccccc2)C2NC(Cc3c[nH]c4ccccc34)C(=O)O2)cc1 (centres undefined) and report it.
Outgoing: 34.8 µM (inactive)

Incoming: Follow-up entry: COCC1OC(OC2OCC3OC4(OCC(O)(C(C)OC)C5OCOC54)OC3C2OC)C(OC)C(O)C1OC1OC(C)C(OC)C(OC2OC(C)C3OC4(CC(O)C(OC5CC(OC6CC(C)([N+](=O)[O-])C(OC)C(C)O6)C(OC(=O)c6c(C)c(Cl)c(O)c(Cl)c6OC)C(C)O5)C(C)O4)OC3(C)C2O)C1O (centres undefined)
Outgoing: > 100 µM (inactive)

Incoming: Follow-up entry: CC(=O)Oc1cc(OC(C)=O)c2c(c1C)CC[C@@H]1[C@@H]2CC[C@]2(C)[C@@H](OC(C)=O)CC[C@@H]12
Outgoing: 18.6 µM (inactive)

Incoming: Follow-up entry: COc1ccc(/C=c2/[nH]c(=O)/c(=C\c3ccc(OCc4ccccc4)cn3)[nH]c2=O)cc1
Outgoing: 19.8 µM (inactive)
